Each entry below carries its recorded %Inh.
Test system: ERK4
Construct: gene MAPK4
Conditions: concentration: 1 μM,replicates: in singlicate; n = 1;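 note: KINOMEscan kinase panel screen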
A number alone suffices; assume %.

CS(=O)(=O)c1cccc(CNc2nc(Nc3ccc4c(c3)[C@@H]3C[C@@H]4CNC3=O)ncc2C(F)(F)F)c1 | 0

## Input Could you please provide reported %Inh for `Cc1ccc(C(=O)Nc2ccc(Oc3ccc4nc(NC(=O)C5CC5)cn4c3)c(F)c2)c(=O)n1-c1ccccc1` ? Thanks!
## Output 0

====

Each entry below carries its recorded %Inh.
System: MLK2
Conditions: concentration: 1 μM,replicates: in singlicate; n = 1
A number alone suffices; assume %.

Cn1ccc2ncnc(Oc3ccc(NC(=O)Nc4cncc(C(F)(F)F)c4)c(Cl)c3)c21 | 0

## Input Could you please provide reported %Inh for `CC(C)S(=O)(=O)N1CCN(Cc2ccc3c(c2)nc(NC(=O)c2ccsc2)n3C[C@H](O)c2ccccc2)CC1` ? Thanks!
## Output 43

## Input Could you please provide reported %Inh for `Cc1ccc(CC(=O)N2CCc3cc(-c4cn(C)c5ncnc(N)c45)ccc32)cc1` ? Thanks!
## Output 17

## Input Could you please provide reported %Inh for `CCCC(=O)Nc1n[nH]c2ncccc12` ? Thanks!
## Output 0
